Test name: Antioxidant activity assessed as reduction in lipid peroxidation by measuring antiperoxide-index at 0.4 g/L by thiobarbituric acid method relative to control
Assay type: functional
Set-up: scale not given: the % may be the effect or the level left
Listed below: Activity values for each entry.
Readout label: Activity (%)

[
  {
    "Smiles structure": "O=c1oc2ccc3c(c2c2ccccc12)OCO3",
    "Observed measurement": 37.9
  },
  {
    "Smiles structure": "O=c1oc2ccc3c(c2c2c(Cl)cccc12)OCO3",
    "Observed measurement": 38.4
  },
  {
    "Smiles structure": "O=C(Oc1ccc2c(c1)OCO2)c1c(Cl)cccc1Cl",
    "Observed measurement": 33.8
  },
  {
    "Smiles structure": "Oc1ccc2c(c1)OCO2",
    "Observed measurement": 30.6
  },
  {
    "Smiles structure": "O=C(Oc1ccc2c(c1)OCO2)c1ccccc1Cl",
    "Observed measurement": 34.1
  },
  {
    "Smiles structure": "O=c1oc2ccc3c(c2c2ccc(Cl)cc12)OCO3",
    "Observed measurement": 39.7
  },
  {
    "Smiles structure": "O=C(Oc1ccc2c(c1)OCO2)c1cc(Cl)ccc1Cl",
    "Observed measurement": 31.1
  },
  {
    "Smiles structure": "O=c1oc2ccc3c(c2c2cc(Cl)ccc12)OCO3",
    "Observed measurement": 40.6
  },
  {
    "Smiles structure": "O=C(Oc1ccc2c(c1)OCO2)c1cccc(Cl)c1Cl",
    "Observed measurement": 27.1
  },
  {
    "Smiles structure": "O=C(Oc1ccc2c(c1)OCO2)c1ccc(Cl)cc1Cl",
    "Observed measurement": 30.4
  },
  {
    "Smiles structure": "O=c1oc2ccc3c(c2c2cccc(Cl)c12)OCO3",
    "Observed measurement": 39.1
  }
]

###

Test name: Antioxidant activity assessed as reduction of potassium ferricyanide trivalent iron into potassium ferrocyanide bivalent iron and ferrous iron by measuring eliminate efficiency at 0.8 g/L relative to control
Assay type: functional
Parameters: scale not given: the % may be the effect or the level left
Listed below: Activity values for each entry.

[
  {
    "Smiles structure": "O=c1oc2ccc3c(c2c2cc(Cl)ccc12)OCO3",
    "Activity": "89.9%"
  },
  {
    "Smiles structure": "O=C(Oc1ccc2c(c1)OCO2)c1ccc(Cl)cc1Cl",
    "Activity": "68.1%"
  },
  {
    "Smiles structure": "Oc1ccc2c(c1)OCO2",
    "Activity": "75.4%"
  },
  {
    "Smiles structure": "O=C(Oc1ccc2c(c1)OCO2)c1ccccc1Cl",
    "Activity": "77%"
  },
  {
    "Smiles structure": "O=c1oc2ccc3c(c2c2ccccc12)OCO3",
    "Activity": "81.6%"
  },
  {
    "Smiles structure": "O=c1oc2ccc3c(c2c2cccc(Cl)c12)OCO3",
    "Activity": "86.5%"
  },
  {
    "Smiles structure": "O=C(Oc1ccc2c(c1)OCO2)c1cc(Cl)ccc1Cl",
    "Activity": "68.5%"
  },
  {
    "Smiles structure": "O=C(Oc1ccc2c(c1)OCO2)c1cccc(Cl)c1Cl",
    "Activity": "59.6%"
  },
  {
    "Smiles structure": "O=c1oc2ccc3c(c2c2c(Cl)cccc12)OCO3",
    "Activity": "84.3%"
  },
  {
    "Smiles structure": "O=C(Oc1ccc2c(c1)OCO2)c1c(Cl)cccc1Cl",
    "Activity": "75.8%"
  },
  {
    "Smiles structure": "O=c1oc2ccc3c(c2c2ccc(Cl)cc12)OCO3",
    "Activity": "84.9%"
  }
]

###

Test name: Antioxidant activity assessed as hydroxyl radical scavenging rate at 0.8 g/L relative to control
Type: functional

[
  {
    "Smiles structure": "Oc1ccc2c(c1)OCO2",
    "Activity / %": 67.4
  },
  {
    "Smiles structure": "O=C(Oc1ccc2c(c1)OCO2)c1c(Cl)cccc1Cl",
    "Activity / %": 72.7
  },
  {
    "Smiles structure": "O=c1oc2ccc3c(c2c2cc(Cl)ccc12)OCO3",
    "Activity / %": 92.7
  },
  {
    "Smiles structure": "O=C(Oc1ccc2c(c1)OCO2)c1cccc(Cl)c1Cl",
    "Activity / %": 57.5
  },
  {
    "Smiles structure": "O=c1oc2ccc3c(c2c2cccc(Cl)c12)OCO3",
    "Activity / %": 89.9
  },
  {
    "Smiles structure": "O=c1oc2ccc3c(c2c2c(Cl)cccc12)OCO3",
    "Activity / %": 83.2
  },
  {
    "Smiles structure": "O=C(Oc1ccc2c(c1)OCO2)c1ccccc1Cl",
    "Activity / %": 73.8
  },
  {
    "Smiles structure": "O=C(Oc1ccc2c(c1)OCO2)c1cc(Cl)ccc1Cl",
    "Activity / %": 70.7
  },
  {
    "Smiles structure": "O=C(Oc1ccc2c(c1)OCO2)c1ccc(Cl)cc1Cl",
    "Activity / %": 66.6
  },
  {
    "Smiles structure": "O=c1oc2ccc3c(c2c2ccccc12)OCO3",
    "Activity / %": 83.2
  },
  {
    "Smiles structure": "O=c1oc2ccc3c(c2c2ccc(Cl)cc12)OCO3",
    "Activity / %": 88.2
  }
]

###

Test name: Antioxidant activity assessed as hydroxyl radical scavenging rate at 1 g/L relative to control
Format: functional
Listed below: Activity values for each entry.
Readout label: Activity (%)

[
  {
    "Smiles structure": "O=c1oc2ccc3c(c2c2c(Cl)cccc12)OCO3",
    "Unit symbol": "%",
    "Observed measurement": 87.4
  },
  {
    "Smiles structure": "O=C(Oc1ccc2c(c1)OCO2)c1cccc(Cl)c1Cl",
    "Unit symbol": "%",
    "Observed measurement": 60.4
  },
  {
    "Smiles structure": "Oc1ccc2c(c1)OCO2",
    "Unit symbol": "%",
    "Observed measurement": 70.8
  },
  {
    "Smiles structure": "O=c1oc2ccc3c(c2c2ccccc12)OCO3",
    "Unit symbol": "%",
    "Observed measurement": 87.4
  },
  {
    "Smiles structure": "O=C(Oc1ccc2c(c1)OCO2)c1ccccc1Cl",
    "Unit symbol": "%",
    "Observed measurement": 77.5
  },
  {
    "Smiles structure": "O=C(Oc1ccc2c(c1)OCO2)c1ccc(Cl)cc1Cl",
    "Unit symbol": "%",
    "Observed measurement": 69.9
  },
  {
    "Smiles structure": "O=c1oc2ccc3c(c2c2cc(Cl)ccc12)OCO3",
    "Unit symbol": "%",
    "Observed measurement": 97.4
  },
  {
    "Smiles structure": "O=c1oc2ccc3c(c2c2cccc(Cl)c12)OCO3",
    "Unit symbol": "%",
    "Observed measurement": 94.4
  },
  {
    "Smiles structure": "O=C(Oc1ccc2c(c1)OCO2)c1c(Cl)cccc1Cl",
    "Unit symbol": "%",
    "Observed measurement": 76.4
  },
  {
    "Smiles structure": "O=c1oc2ccc3c(c2c2ccc(Cl)cc12)OCO3",
    "Unit symbol": "%",
    "Observed measurement": 92.6
  },
  {
    "Smiles structure": "O=C(Oc1ccc2c(c1)OCO2)c1cc(Cl)ccc1Cl",
    "Unit symbol": "%",
    "Observed measurement": 74.2
  }
]

###

Test name: Antioxidant activity assessed as superoxide anion radical scavenging rate at 0.8 g/L relative to control
Format: functional
Readout label: Activity (%)

[
  {
    "Smiles structure": "O=c1oc2ccc3c(c2c2cccc(Cl)c12)OCO3",
    "Unit symbol": "%",
    "Observed measurement": 85.5
  },
  {
    "Smiles structure": "O=C(Oc1ccc2c(c1)OCO2)c1cccc(Cl)c1Cl",
    "Unit symbol": "%",
    "Observed measurement": 54.5
  },
  {
    "Smiles structure": "O=C(Oc1ccc2c(c1)OCO2)c1cc(Cl)ccc1Cl",
    "Unit symbol": "%",
    "Observed measurement": 63.5
  },
  {
    "Smiles structure": "O=C(Oc1ccc2c(c1)OCO2)c1ccccc1Cl",
    "Unit symbol": "%",
    "Observed measurement": 69.5
  },
  {
    "Smiles structure": "O=C(Oc1ccc2c(c1)OCO2)c1ccc(Cl)cc1Cl",
    "Unit symbol": "%",
    "Observed measurement": 59.7
  },
  {
    "Smiles structure": "O=c1oc2ccc3c(c2c2cc(Cl)ccc12)OCO3",
    "Unit symbol": "%",
    "Observed measurement": 87
  },
  {
    "Smiles structure": "O=C(Oc1ccc2c(c1)OCO2)c1c(Cl)cccc1Cl",
    "Unit symbol": "%",
    "Observed measurement": 68.2
  },
  {
    "Smiles structure": "O=c1oc2ccc3c(c2c2ccccc12)OCO3",
    "Unit symbol": "%",
    "Observed measurement": 82
  },
  {
    "Smiles structure": "O=c1oc2ccc3c(c2c2ccc(Cl)cc12)OCO3",
    "Unit symbol": "%",
    "Observed measurement": 84.2
  },
  {
    "Smiles structure": "Oc1ccc2c(c1)OCO2",
    "Unit symbol": "%",
    "Observed measurement": 63.3
  },
  {
    "Smiles structure": "O=c1oc2ccc3c(c2c2c(Cl)cccc12)OCO3",
    "Unit symbol": "%",
    "Observed measurement": 79.4
  }
]
